Overview of recorded IC50 for various compounds
# system.name: CYP3A4 (Homo sapiens)
# Construct: purchased BD Biosciences, NJ, USA; host or cells: CYP3A4-expressing system microsomes
# Sequence (P08684 whole entry): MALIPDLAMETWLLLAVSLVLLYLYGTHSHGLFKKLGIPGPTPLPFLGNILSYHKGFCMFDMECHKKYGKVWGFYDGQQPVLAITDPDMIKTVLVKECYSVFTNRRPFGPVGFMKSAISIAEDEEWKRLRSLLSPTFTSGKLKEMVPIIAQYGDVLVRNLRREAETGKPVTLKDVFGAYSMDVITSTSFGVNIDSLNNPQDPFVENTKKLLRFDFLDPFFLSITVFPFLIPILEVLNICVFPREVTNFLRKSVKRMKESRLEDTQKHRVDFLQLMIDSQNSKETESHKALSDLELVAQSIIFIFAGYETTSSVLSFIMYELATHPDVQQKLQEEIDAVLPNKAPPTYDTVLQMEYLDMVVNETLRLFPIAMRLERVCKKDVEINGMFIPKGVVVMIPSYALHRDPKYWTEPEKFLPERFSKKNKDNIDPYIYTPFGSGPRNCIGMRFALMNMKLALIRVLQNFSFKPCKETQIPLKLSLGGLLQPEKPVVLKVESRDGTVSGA
# assay.summary: Inhibition of drug-metabolizing enzyme CYP3A4 (CYP3A4/BFC kit)
# Type: in vitro ADME
# condition: CYP3A4-expressing microsomes, BFC substrate, 37° C., 30 minutes; read-out: Inhibition of Drug-Metabolizing Enzymes (IC50; μM) CYP3A4
Please give a number only; it is taken to be in µM.

Below: 2 compounds and their reported IC50.
*Q* Hi! What's the reported IC50 for O=c1c2c(Cc3ccc(F)cc3)n[nH]c2c2cccnc2n1-c1ccccc1 [Example No. 33] on CYP3A4 (Homo sapiens)?
*A* 6.2

*Q* Value wanted: IC50 (CYP3A4 (Homo sapiens)) of entry O=c1c2c(Cc3ccccc3)n[nH]c2c2cccnc2n1-c1ccccc1 [Example No. 9]
*A* 8.5

Okay, now this compound:
*Q* Recall the recorded IC50 for O=C(Nc1c(Cl)cncc1Cl)c1ccc(OC(F)F)c(OCC2CC2)c1 [Roflumilast, reference compound] with CYP3A4 (Homo sapiens) and state it.
*A* 0.98

###

A collection of molecules and their measured melting point

*Q* Need melting point, item O=C(O)Cc1ccc(Cc2n[nH]c3c2c(=O)n(-c2ccccc2)c2ncccc32)cc1 [Example No. 46]
*A* 297 to 300 °C

*Q* Look up melting point for this molecule: NC(=O)Nc1ccccc1CCc1n[nH]c2c1c(=O)n(-c1ccccc1)c1ncccc21 [Example 50]
*A* 300 to 305 °C

*Q* Any idea what melting point was measured for CS(=O)(=O)Nc1ccc(CCc2n[nH]c3c2c(=O)n(-c2ccccc2)c2ncccc32)cc1 [Example 48] ?
*A* 284 to 285 °C

*Q* Recorded melting point of O=c1c2c(CCc3cccnc3)n[nH]c2c2cccnc2n1-c1ccccc1 [Example 3] , please.
*A* 322 °C (dec.)

Lab note: next molecule to report on.
*Q* Name the recorded melting point for N#Cc1cccc(CCc2n[nH]c3c2c(=O)n(-c2ccccc2)c2ncccc32)c1 (hydrate or solvate) [Example 18] .
*A* 219.5 to 224.5 °C

###

measure.name: melting point

*Q* I would be grateful if you could share the reported melting point for O=c1c2c(CCc3ccc([N+](=O)[O-])cc3)n[nH]c2c2cccnc2n1-c1ccccc1 (hydrate or solvate) .
*A* 260 to 262 °C

*Q* Need melting point of COc1ccc(Cc2n[nH]c3c2c(=O)n(-c2ccccc2)c2ncccc32)cc1 (hydrate or solvate) , thanks.
*A* 300 to 302 °C

*Q* What value of melting point has been recorded for this entry: COc1ccc(Cc2n[nH]c3c2c(=O)n(-c2ccccc2)c2ncccc32)cc1OC (hydrate or solvate)
*A* 230 to 232 °C

*Q* Quick check: melting point of O=c1c2c(CCc3cccc([N+](=O)[O-])c3)n[nH]c2c2cccnc2n1-c1ccccc1 (hydrate or solvate) ?
*A* 245 to 247 °C

*Q* // returns reported melting point for input O=c1c2c(Cc3cccc([N+](=O)[O-])c3)n[nH]c2c2cccnc2n1-c1ccccc1 (hydrate or solvate)
*A* > 320 °C

---
*Q* Entry under review: O=c1c2c(CCc3ccncc3)n[nH]c2c2cccnc2n1-c1cccc([N+](=O)[O-])c1 . Reported melting point?
*A* 161 to 165 °C

*Q* Query: melting point; subject: Nc1cccc(-n2c(=O)c3c(CCc4ccncc4)n[nH]c3c3cccnc32)c1
*A* 261 to 263 °C
